I'd be grateful if you could share measured IC50 for these entries.
Experimental System: human SLC6A19 and TMEM27 (Homo sapiens, UniProt Q695T7)
Construct: expressed in transfected cells
Protocol Summary: Radiolabelled (3H) leucine uptake in CHO cells with doxycycline-inducible expression of human SLC6A19 and TMEM27 (Example B-1)
Type: cell-based
Condition Context: CHO cells with doxycycline-inducible expression of human SLC6A19 and TMEM27, read-out: SLC6A19_Radioligand Uptake Assay IC50
Description: The flasks were then incubated (humidified, 37° C. with 5% CO2) for 2 minutes. After incubation, 10 mL of pre-warmed cell culture media was added to each flask. The cell suspension was collected and centrifuged for 5 minutes at 200×g. […] The resuspended cells were counted using the Countess Cell Counting Chamber (Invitrogen) and the cell concentration of the suspension was readjusted to 1 million live cells/mL using pre-warmed cell culture media. […]
State the value, then name its unit.

Lookup: // lookup IC50 for CCc1cc(COc2ccc3cc(CNC(=O)C4(C)CC4)[nH]c3c2)no1 [Compound 185]
Found: 1050 nM

Lookup: // lookup IC50 for Cc1cc(COc2cc3[nH]c(CNC(=O)[C@H]4CCCO4)cc3cc2Cl)on1 [Compound 311]
Found: 129 nM

Lookup: // lookup IC50 for CC1(C(=O)NCc2cc3cc(CC(F)(F)F)c(OCc4cscn4)cc3[nH]2)CC1 [Compound 648]
Found: 785 nM

Lookup: // lookup IC50 for Cc1nc(COc2cc3[nH]c(CNC(=O)C4(C)CC4)cc3cc2F)co1 [Compound 547]
Found: 363 nM

Lookup: // lookup IC50 for Cc1cc(COc2cc3[nH]c(CNC(=O)[C@@H](C)O)cc3cc2Cl)on1 [Compound 256]
Found: 140 nM

Lookup: // lookup IC50 for O=C(CN1CCC1)NCc1cc2cc(Cl)c(OCc3cscn3)cc2[nH]1 [Compound 512]
Found: 6780 nM

Lookup: // lookup IC50 for O=C(NCc1cc2cc(F)c(OCc3ccon3)cc2[nH]1)N1CCCC1 [Compound 116]
Found: 157 nM

Lookup: // lookup IC50 for C[C@H]1CCN(C(=O)NCc2cc3cc(F)c(OCc4ccon4)cc3[nH]2)C1 [Compound 382]
Found: 420 nM

---

Experimental System: human SLC6A19 and TMEM27 (Homo sapiens, UniProt Q695T7)
Construct: expressed in transfected cells
Sequence (Q695T7 1-634): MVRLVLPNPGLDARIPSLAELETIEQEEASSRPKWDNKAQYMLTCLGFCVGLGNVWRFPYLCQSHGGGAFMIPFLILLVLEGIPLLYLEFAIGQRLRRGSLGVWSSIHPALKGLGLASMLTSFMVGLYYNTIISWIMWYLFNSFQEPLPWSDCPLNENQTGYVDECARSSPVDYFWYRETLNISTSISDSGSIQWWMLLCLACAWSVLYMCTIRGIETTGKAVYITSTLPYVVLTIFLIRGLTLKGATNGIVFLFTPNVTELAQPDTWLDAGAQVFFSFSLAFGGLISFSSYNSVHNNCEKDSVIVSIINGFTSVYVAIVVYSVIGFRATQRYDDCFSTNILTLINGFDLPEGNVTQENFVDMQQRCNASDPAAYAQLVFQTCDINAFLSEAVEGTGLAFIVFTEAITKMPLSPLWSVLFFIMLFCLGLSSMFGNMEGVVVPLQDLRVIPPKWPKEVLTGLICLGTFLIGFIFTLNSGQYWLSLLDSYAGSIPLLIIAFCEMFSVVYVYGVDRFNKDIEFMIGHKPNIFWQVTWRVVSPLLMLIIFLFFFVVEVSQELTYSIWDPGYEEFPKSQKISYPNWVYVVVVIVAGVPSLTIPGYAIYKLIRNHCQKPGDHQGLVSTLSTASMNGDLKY
Sequence (Q9HBJ8 15-222 partner): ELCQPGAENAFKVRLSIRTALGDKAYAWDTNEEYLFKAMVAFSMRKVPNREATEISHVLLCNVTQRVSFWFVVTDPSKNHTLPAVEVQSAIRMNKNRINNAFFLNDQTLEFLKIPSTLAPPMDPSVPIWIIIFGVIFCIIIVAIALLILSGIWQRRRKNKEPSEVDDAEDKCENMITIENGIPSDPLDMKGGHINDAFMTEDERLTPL
Protocol Summary: Radiolabelled (3H) leucine uptake in CHO cells with doxycycline-inducible expression of human SLC6A19 and TMEM27 (Example B-1)
Type: cell-based
Condition Context: CHO cells with doxycycline-inducible expression of human SLC6A19 and TMEM27, read-out: SLC6A19_Radioligand Uptake Assay IC50
Parameter Measured: IC50 (nM)
Give the quantity in nM, number only.

Lookup: // lookup IC50 for CC1(C(=O)NCc2cc3cc(Cl)c(OCc4ncc(Cl)s4)cc3[nH]2)CC1
Found: 1810

Lookup: // lookup IC50 for Cc1cc(COc2cc3[nH]c(CNC(=O)[C@H]4C[C@@H]5CC[C@H]4O5)cc3cc2Cl)on1 (racemic)
Found: 1020

Lookup: // lookup IC50 for Cc1cc(COc2cc3[nH]c(CNC(=O)[C@@H]4CCO4)cc3cc2Cl)on1
Found: 94

Lookup: // lookup IC50 for Cc1nc(COc2cc3[nH]c(CNC(=O)N4CCCC4)cc3cc2Cl)co1
Found: 313

Lookup: // lookup IC50 for CCNC(=O)NCc1cc2cc(Cl)c(OCc3cc(C)no3)cc2[nH]1
Found: 125

Lookup: // lookup IC50 for CC1(C(=O)NCc2cc3cc(C(F)F)c(OCc4ccon4)cc3[nH]2)CC1
Found: 539

Lookup: // lookup IC50 for C[C@H]1CCN1C(=O)NCc1cc2cc(Cl)c(OCc3ccon3)cc2[nH]1
Found: 983
